Each entry below carries its recorded TGI.
tested on: SK-MEL-5 melanoma; assay: NCI tumour cell line growth inhibition, 48 h

Below are worked cases with known answers.
| molecule | TGI |
| --- | --- |
| COC(=O)CCc1c(Cc2ccc[nH]2)[nH]c(C(=O)OCc2ccccc2)c1C | 29.2 µM |
| Cc1ccc(S(=O)(=O)[C@@H](Cl)[C@H]2N=C(Cl)NN=C2c2ccccc2)cc1 | 34.5 µM |
| CCOC(=O)CCC1(C(=O)OCC)CCCC1=O (stereo not given) | > 100 µM |
| O=C1OC(c2ccccc2)=N/C1=C\c1ccc(Oc2ccc(Cl)c(Cl)c2)cc1 | 81.6 µM |
| CO[C@H]1O[C@@H]2CO[C@@H](c3ccccc3)O[C@H]2[C@@H]2C/C=C\CCC[C@@]12O | 31.7 µM |

Task item: Given the molecule Cc1nc2ccc(Br)cc2c(=O)n1-c1ccc(NC2OCC(O)C(O)C2O)cc1 (stereo not given) , write its reported TGI.
Reply: > 100 µM

Task item: Given the molecule O=S1(=O)N(Cc2ccccc2)[C@@H](Cc2ccccc2)[C@H](O)[C@H](O)[C@H](Cc2ccccc2)N1Cc1ccccc1 , write its reported TGI.
Reply: 5.8 µM

Task item: Given the molecule CCCCCCCCCC(=O)N[C@@H](c1ccco1)[C@@H](O)C(=O)O[C@H]1C[C@@]2(O)[C@@H](OC(=O)c3ccccc3)[C@@H]3[C@]4(OC(C)=O)CO[C@@H]4C[C@H](O)[C@@]3(C)C(=O)[C@H](OC(C)=O)C(=C1C)C2(C)C , write its reported TGI.
Reply: 2.25 µM

Task item: Given the molecule C#CCNC(=S)N/N=C(\C)c1ccccn1 , write its reported TGI.
Reply: 2.7 µM

Task item: Given the molecule CN(C)c1nc(=NCc2ccco2)ss1 , write its reported TGI.
Reply: > 100 µM

Task item: Given the molecule Cc1nnc2n(c1=O)CCN2C , write its reported TGI.
Reply: > 100 µM

Task item: Given the molecule NS(=O)(=O)c1ccc(N=Nc2c(O)[nH]c3ccc(C(=O)NCc4ccncc4)cc23)cc1 , write its reported TGI.
Reply: > 25 µM

Task item: Given the molecule NCCCCC1NC(=O)C(CC(=O)O)NC(=O)CNC(=O)C(CCCN=C(N)N)NC(=O)C(N)CSSCC(C(=O)O)NC(=O)C(CC(=O)O)NC(=O)C2CCCN2C(=O)CNC1=O (stereo not given) , write its reported TGI.
Reply: > 100 µM

Task item: Given the molecule CC12CCCCC1=[N+]([O-])C(C)(C)N2O (stereo not given) , write its reported TGI.
Reply: > 100 µM

Task item: Given the molecule O=CC(O)C(O)C(O)C1CNC(=S)O1 (stereo not given) , write its reported TGI.
Reply: > 100 µM

Task item: Given the molecule CCOC(=O)NNC(=O)NCc1ccccc1CNC(=O)NNC(=O)OCC , write its reported TGI.
Reply: > 100 µM

Task item: Given the molecule Cc1cc(Nc2nc(C(=O)Nc3ccccc3)nc3ccccc23)n[nH]1 , write its reported TGI.
Reply: > 25 µM

Task item: Given the molecule C=C1[C@@](C)([C@@H]2CCCS2)[C@H]2C(C)=C[C@]1(C)n1c(=O)n(-c3ccccc3)c(=O)n12 , write its reported TGI.
Reply: > 100 µM

Task item: Given the molecule CCSCN(C)c1nc(N(C)C)nc(N(C)C)n1 , write its reported TGI.
Reply: > 100 µM

Task item: Given the molecule COC(=O)c1c(CC(Cc2ccc3c(c2)CCCC3)C(=O)OC)ccc2c1CCCC2 (stereo not given) , write its reported TGI.
Reply: > 100 µM

====

Each entry below carries its recorded TGI.
test system: TK-10 renal; assay: NCI tumour cell line growth inhibition, 48 h
Respond numerically; units are µM and should not be typed.

Below are worked cases with known answers.
| compound | TGI / µM |
| --- | --- |
| CCn1c(-c2cc3c([nH]c4ccccc43)c(-c3cccc(O)c3)n2)n[nH]c1=S | 14.8 |
| C1=C/COCc2cc(ccc2OCCN2CCCC2)Nc2nccc(n2)-c2ccc(o2)COC/1 | 12 |
| Cc1c2c(cc3c1C(=O)C(=O)C1=C3OC[C@@H]1C)C(C)(C)CCC2 | 56.7 |
| Cc1ccc(S(=O)(=O)N=NC=C2c3ccccc3N(O)c3ccccc32)cc1 | 16.5 |
| COC(=O)NNC(c1ccc(Cl)cc1)c1ccc(Cl)cc1 | 33.6 |

Task item: Given the compound Cc1ncc(C(=O)Nc2ccc(CN3CCN(C)CC3)c(C(F)(F)F)c2)cc1C#Cc1ccc(N)nc1 , write its reported TGI.
Reply: 4.39

Task item: Given the compound CN(Cc1ccc(C(F)(F)F)cc1)CC(O)C(=O)Nc1ccc(Cl)cc1 (configuration not stated) , write its reported TGI.
Reply: 3.38

Task item: Given the compound O=C(Nc1ccc(F)cc1F)c1cc(Cl)ccc1O , write its reported TGI.
Reply: 31.8

====

test system: SF-295 CNS; assay: NCI tumour cell line growth inhibition, 48 h
Each entry below carries its recorded TGI.

Below are worked cases with known answers.
| molecule | system | TGI |
| --- | --- | --- |
| NC(Cc1c[nH]c2cc([N+](=O)[O-])ccc12)C(=O)O (stereo not given) | SF-295 CNS | > 100 µM |
| N/C(=N\NS(=O)(=O)c1ccccc1)Oc1ccc(Br)cc1Br | SF-295 CNS | > 100 µM |
| O=[N+]([O-])c1ccc2oc(=Nc3ccccc3)c(Nc3ccccc3)nc2c1 | SF-295 CNS | > 100 µM |
| CN1CCN(CCOc2ccc(-c3cnc4c(-c5cccc(F)c5)cnn4c3)cc2)CC1 | SF-295 CNS | 3.27 µM |
| CCOC(=O)C(C)Sc1nnc(COc2ccccc2OC)n1-c1ccccc1 (stereo not given) | SF-295 CNS | > 100 µM |

Task item: Given the molecule O=S1(=O)N(Cc2ccccc2)[C@@H](Cc2ccccc2)[C@H](O)[C@H](O)[C@H](Cc2ccccc2)N1Cc1ccccc1 , write its reported TGI.
Reply: 5.68 µM

Task item: Given the molecule CCN1CCN(Cc2ccc(NC(=O)Nc3nc4ccc(Oc5ccnc(C(=O)NC)c5)cc4s3)cc2C(F)(F)F)CC1 , write its reported TGI.
Reply: 3.66 µM

Task item: Given the molecule CCOc1ccc2c(c1)C(=O)c1c-2n(CCCBr)c(=O)c2cc([N+](=O)[O-])ccc12 , write its reported TGI.
Reply: > 100 µM

Task item: Given the molecule CCCC1C(=O)Nc2cccc3ncn(c23)C1=O (stereo not given) , write its reported TGI.
Reply: > 100 µM

Task item: Given the molecule CC(=O)OC1C2CCC3C(C)(O)C4CC(O)C(C)(C)C4(O)C(O)CC13CC2(C)O (stereo not given) , write its reported TGI.
Reply: > 100 µM

====

tested on: CCRF-CEM leukemia; assay: NCI tumour cell line growth inhibition, 48 h
Each entry below carries its recorded TGI.
Respond numerically; units are µM and should not be typed.

Below are worked cases with known answers.
| molecule | TGI / µM |
| --- | --- |
| OCC(CCc1ccccc1I)C1=CCC2(CC1)OCCO2 (stereo not given) | 35.7 |
| CN(C)CCNC(=O)c1cccc2cc3cc(O)ccc3nc12 | 5.44 |
| CCCCCN(CCCCC)CC(O)c1cc(Cl)ccc1OC (stereo not given) | 36 |

# context switch: different molecule, same TGI
Task item: Print CCRF-CEM leukemia TGI for COc1cc2ncnc(-n3ncc4cc(NC(=O)Nc5ccc(Cl)c(Cl)c5)ccc43)c2cc1OC .
Reply: 42.3

====

Each entry below carries its recorded TGI.
test system: TK-10 renal; experiment: NCI tumour cell line growth inhibition, 48 h

| compound | system | measurement_label | meas_value |
| --- | --- | --- | --- |
| CCOC(=O)NNC(=O)NCc1ccccc1CNC(=O)NNC(=O)OCC | TK-10 renal | TGI | > 100 µM |
| Cc1cccc2c1c1ccc3c(c1n2C)C(=O)C=CC3=O | TK-10 renal | TGI | 7.19 µM |
| COc1ccc2nc3c(c(NCCCN(C)C)c2c1)CCCC3 | TK-10 renal | TGI | > 100 µM |

Task item: Given the compound COc1ccc2c(c1OC)-c1c(c3ccc([N+](=O)[O-])cc3c(=O)n1CCCBr)C2=O , write its reported TGI.
Reply: > 100 µM

====

system: HOP-62 NSCLC; assay: NCI tumour cell line growth inhibition, 48 h
Where a SMILES comes first, the peptide text is derived from it. [ ]: non-standard residue; d: D form. The star is where a group is joined. Bn2Val = CC(C)[C@@H](C(=O)*)N(Cc1ccccc1)Cc1ccccc1; NMeV = CN[C@H](C(=O)O)C(C)C; X29 = COc1ccc(CN*)c(OC)c1; dNMeA = CN[C@H](C)C(=O)O
Each entry below carries its recorded TGI.

Below are worked cases with known answers.
| molecule | system | TGI |
| --- | --- | --- |
| Cc1ccc(-c2cc(O)c3nc4ccccc4n3c2)cc1 | HOP-62 NSCLC | > 100 µM |
| CN1CCN(CCOc2ccc(-c3cnc4c(-c5cccc(F)c5)cnn4c3)cc2)CC1 | HOP-62 NSCLC | 3.73 µM |
| CN(C)/C=N\c1ccnc(=O)[nH]1 | HOP-62 NSCLC | > 100 µM |

Task item: Given the molecule Cl/C(N=Nc1ccccc1)=N/Nc1ccccc1 , write its reported TGI.
Reply: > 100 µM

Task item: Given the molecule Cc1ncc(C(=O)Nc2ccc(CN3CCN(C)CC3)c(C(F)(F)F)c2)cc1C#Cc1ccc(N)nc1 , write its reported TGI.
Reply: 2.6 µM

Task item: Given the molecule O=C1OC(c2ccccc2)=N/C1=C\c1ccc(Oc2ccc(Cl)c(Cl)c2)cc1 , write its reported TGI.
Reply: > 100 µM

Task item: Given the molecule COc1ccc(CNC(=O)[C@@H]2CCCN2C(=O)[C@@H](C)N(C)C(=O)[C@H](C(C)C)N(C)C(=O)[C@@H](NC(=O)[C@H](C(C)C)N(Cc2ccccc2)Cc2ccccc2)C(C)C)c(OC)c1 (Bn2Val-V[NMeV][dNMeA]P-X29) , write its reported TGI.
Reply: 21.1 µM

Task item: Given the molecule Cc1ccc(NC2=NCCO2)c2c1CCC2 , write its reported TGI.
Reply: > 100 µM

Task item: Given the molecule COc1ccc(C2OCCN2C)cc1 (stereo not given) , write its reported TGI.
Reply: > 100 µM

Task item: Given the molecule COc1ccc(Nc2nc3ccccc3c3occc23)cc1 , write its reported TGI.
Reply: 23.7 µM

Task item: Given the molecule C1=C/COCc2cc(ccc2OCCN2CCCC2)Nc2nccc(n2)-c2ccc(o2)COC/1 , write its reported TGI.
Reply: 6.91 µM

Task item: Given the molecule CC(C)OP(=O)(OC(C)C)C1=NN(c2ccc([N+](=O)[O-])cc2)C(P(=O)(OC(C)C)OC(C)C)=NN1c1ccc([N+](=O)[O-])cc1 , write its reported TGI.
Reply: > 100 µM

Task item: Given the molecule COC(=O)c1c(CC(Cc2ccc3c(c2)CCCC3)C(=O)OC)ccc2c1CCCC2 (stereo not given) , write its reported TGI.
Reply: > 100 µM

Task item: Given the molecule CC(C)c1nc(N(C)S(C)(=O)=O)nc(-c2ccc(F)cc2)c1/C=C/[C@@H](O)C[C@@H](O)CC(=O)O , write its reported TGI.
Reply: > 100 µM

Task item: Given the molecule O=C(O)/C=C\C(=O)Nc1ccccn1 , write its reported TGI.
Reply: > 100 µM

Task item: Given the molecule NC(=O)c1cc(N(CCO)CCO)c([N+](=O)[O-])cc1[N+](=O)[O-] , write its reported TGI.
Reply: > 100 µM

Task item: Given the molecule CCN1CCN(Cc2ccc(NC(=O)Nc3nc4ccc(Oc5ccnc(C(=O)NC)c5)cc4s3)cc2C(F)(F)F)CC1 , write its reported TGI.
Reply: 3.78 µM

Task item: Given the molecule O=c1c2cc(-c3ccccc3)sc2ncn1Cc1ccc(Cl)c(Cl)c1 , write its reported TGI.
Reply: 24.7 µM

Task item: Given the molecule O=c1nc(-c2ccccc2)cc(CC(O)c2ccc(Cl)c(Cl)c2)[nH]1 (stereo not given) , write its reported TGI.
Reply: > 100 µM

Task item: Given the molecule O=CC(O)C(O)C(O)C1CNC(=S)O1 (stereo not given) , write its reported TGI.
Reply: > 100 µM
